GI50 for assorted molecules
system: MDA-MB-435; assay: NCI tumour cell line growth inhibition, 48 h
Active and inactive are the calls of the source. Cut-off read from the data, not from the text of the source: active = GI50 up to about 1.1 µM and inactive = higher.

Worked examples, 3 molecules total:
Molecule: Cc1ccc2c(c1)NC(=O)CC(c1ccccc1)=N2
Test Result: 31 µM (inactive)
//
Molecule: CC(C)=C/C(CC(O)(C(F)(F)F)C(F)(F)F)=N\O
Test Result: > 100 µM (inactive)
//
Molecule: O=C(O)c1cc(NCc2cc(O)ccc2O)ccc1O
Test Result: 27 µM (inactive)

Memo: "O=C(N[C@@H](c1ccccc1)[C@@H](O)C(=O)OCc1ccc([N+](=O)[O-])cc1)c1ccccc1" , reported GI50: > 100 µM (inactive)

Memo: CN(C)C1(N(C)C)Oc2c(c(=O)n(C)c(=O)n2C)C(c2ccc(Br)cc2)C1(F)F (stereo unspecified) , reported GI50: > 100 µM (inactive)

Memo: "COc1cc2oc(-c3ccc4c(c3)OCO4)c(OC)c(=O)c2c(OC)c1O" , reported GI50: 70.3 µM (inactive)

Memo: COC1(CC[C@@H](C)COC2OC(CO)C(O)C(O)C2O)O[C@H]2C[C@H]3[C@@H]4CC=C5C[C@@H](OC6OC(CO)C(OC7OC(C)C(O)C(O)C7O)C(O)C6OC6OC(C)C(O)C(O)C6O)CC[C@]5(C)[C@H]4CC[C@]3(C)[C@H]2[C@@H]1C (stereo partly specified) , reported GI50: 2.02 µM (inactive)

Memo: "O=[N+]([O-])c1ccc(-c2nnc(C34CC5CC(CC(C5)C3)C4)o2)cc1" , reported GI50: > 100 µM (inactive)

Memo: CC1Cc2cc(O)c(O)cc2-c2cc(O)c(O)cc2CC1C (stereo unspecified) , reported GI50: 3.16 µM (inactive)

###

tested on: U-251; test: NCI tumour cell line growth inhibition, 48 h
Active and inactive are the calls of the source. Cut-off read from the data, not from the text of the source: active = GI50 up to about 1.1 µM and inactive = higher. Non-standard residues stand in square brackets, D forms with d. Residues, ends and D or L forms follow the SMILES beside them. ξ: configuration not given here. ξLac(3-iPr) = CC(C)CC(O)C(=O)O; NMeV = CN[CH](C(=O)O)C(C)C; NMeA = CN[CH](C)C(=O)O; βAla = NCCC(=O)O
Tick one outcome: active, inactive

// below: answered compounds
Compound: CCC(C)C1NC(=O)C2CCCN2C(=O)C(CC(C)C)OC(=O)CCNC(=O)C(C)N(C)C(=O)C(C(C)C)N(C)C1=O (stereo not given) (cyclo([ξLac(3-iPr)]PI[NMeV][NMeA][βAla]); configuration not given here)
Target Or System: U-251
Classification: inactive

Compound: COc1ccc(/C=C2\CCC(CNc3cc(C)on3)C2=O)cc1 (stereo not given)
Target Or System: U-251
Classification: inactive

Compound: COc1ccc(/C=C/c2cc(OC)c(OC)c(OC)c2)cc1OC
Target Or System: U-251
Classification: inactive

Compound: CCOC(=O)Cn1c(=O)c(C)cn(COCCO)c1=O
Target Or System: U-251
Classification: inactive

query: Any idea what this test logged for "C/C(=N\NC(=S)N(C)C)c1ccccn1" ?
result: active

query: Any idea what this test logged for "CC(=O)Nc1ccc(-c2nnc(SCC(=O)Nc3cccc(Cl)c3)o2)cc1" ?
result: inactive

query: Any idea what this test logged for "N=C(N)NNC(=O)C(=O)O" ?
result: inactive

###

test system: UACC-62; assay: NCI tumour cell line growth inhibition, 48 h
Active and inactive are the calls of the source. No stated cut-off is given here; in the data, active = GI50 up to about 1.1 µM and inactive = higher.
GI50 for assorted molecules

Worked examples, 5 molecules total:
Molecule: COc1c(-c2ccc(O)c(O)c2)oc2c(O)c(O)cc(O)c2c1=O
Target Or System: UACC-62
GI50: 51.1 µM (inactive)

Molecule: NS(=O)(=O)c1ccccc1C(=O)N/N=C(\c1nc2ccc([N+](=O)[O-])cc2[nH]c1=O)C(O)c1ccc([N+](=O)[O-])cc1 (centres undefined)
Target Or System: UACC-62
GI50: 52.2 µM (inactive)

Molecule: CC(C)NC(=O)OCc1c(CO)c2c(n1C)-c1ccccc1CC2
Target Or System: UACC-62
GI50: 18.3 µM (inactive)

Molecule: CCCCCCCCCCCCCCCCSCC(COC)COP(=O)([O-])OCC[N+](C)(C)C (centres undefined) [ILMOFOSINE]
Target Or System: UACC-62
GI50: 4.92 µM (inactive)

Molecule: N/N=C(\c1nc2ccc([N+](=O)[O-])cc2nc1O)C(O)c1ccc(Cl)c(Cl)c1 (centres undefined)
Target Or System: UACC-62
GI50: > 100 µM (inactive)

Memo: COc1ccccc1/C=C\C(=O)C1COCN1 (centres undefined) , reported GI50: 14.5 µM (inactive)

Memo: O=C(O)CC(NC(=O)/C(=C/c1ccccc1O)NC(=O)c1ccccc1)C(=O)O (centres undefined) , reported GI50: 42.5 µM (inactive)

Memo: Cc1cc(O)cc2c1O[C@@]1(C)CCC3[C@@]4(C)CC[C@H](O)C(C)(C)C4CC[C@@]3(C)[C@H]1C2 (some centres undefined) , reported GI50: 8.11 µM (inactive)

Memo: "Nc1csc(-c2scc3c2OCCO3)c1N" , reported GI50: 14.4 µM (inactive)

Memo: "C(=N\NC1=NCCN1)/c1cccc2cc3ccncc3nc12" , reported GI50: 3.43 µM (inactive)

Memo: COc1cc(C2SCC(=O)N2c2ccc(Oc3ccc(Cl)cc3)c(Cl)c2)cc(OC)c1OC (centres undefined) , reported GI50: 16 µM (inactive)

Memo: "NCCCN(CCCCN(CCCN)Cc1ccccc1)Cc1ccccc1" , reported GI50: > 100 µM (inactive)

Memo: COc1ccc(CC2OC3(CCCCC3)CC3CCCCN32)cc1 (centres undefined) , reported GI50: > 100 µM (inactive)

Memo: "O=C1C=CC(=O)c2c1ccc1c3ccccc3n(Cc3ccc([N+](=O)[O-])cc3)c21" , reported GI50: > 100 µM (inactive)

Memo: CCCCCC(=O)C(C)C1=Nc2nnc(CCCCCCCc3nnc4n3C(=O)C(C(C)C(=O)CCCCC)=N4)n2C1=O (centres undefined) , reported GI50: > 100 µM (inactive)

Memo: "N#CC1=C2Sc3ccccc3N2[C@H](c2ccccc2)[C@H]2COC(=O)[C@@H]12" , reported GI50: 67.1 µM (inactive)

Memo: "O=[N+]([O-])c1ccc(-c2nnc(C34CC5CC(CC(C5)C3)C4)o2)cc1" , reported GI50: > 100 µM (inactive)

Memo: "Cc1cccc2c(=O)c3cccc(CC(=O)O)c3oc12" , reported GI50: > 100 µM (inactive)

Memo: CC1=C(OC2OC(CO)C(O)C(O)C2O)C(=O)C[C@H]2C1=CC[C@@H]1[C@@]2(C)C(=O)C[C@]2(C)[C@@H]([C@@](C)(O)C(=O)CCC(C)(C)O)[C@H](O)C[C@@]12C (some centres undefined) , reported GI50: > 100 µM (inactive)

###

system: NCI-H23; assay: NCI tumour cell line growth inhibition, 48 h
The source made the active and inactive calls. Rule as the data show it: active = GI50 up to about 1.1 µM and inactive = higher.
Observation Type: GI50

Worked examples, 5 molecules total:
Molecule: Cc1ccc(/C=N/NS(=O)(=O)c2ccccc2)cc1C
Target Or System: NCI-H23
GI50: > 100 µM (inactive)
//
Molecule: O=C1C2C=CC(n3[nH]c(=O)n(Cc4ccccc4)c3=O)CC2C(=O)N1c1ccc(Br)cc1 (configuration not stated)
Target Or System: NCI-H23
GI50: > 100 µM (inactive)
//
Molecule: CC(NC(=O)OCc1ccccc1)NC(=O)C(CC(=O)OC(C)(C)C)NC(=O)OC(C)(C)C (configuration not stated)
Target Or System: NCI-H23
GI50: > 100 µM (inactive)
//
Molecule: O=C1C(CN2CCOCC2)CCCC1CN1CCOCC1 (configuration not stated)
Target Or System: NCI-H23
GI50: 6 µM (inactive)
//
Molecule: O=C(O)/C=C/C(=O)Nc1cccc2c1-c1ccccc1C2=O
Target Or System: NCI-H23
GI50: 18.2 µM (inactive)

Now examine the next entry.
Memo: "C=C1CN2CC(=C)CN(C1)CS(=O)(=O)N1CC(=C)CN(CC(=C)C1)S(=O)(=O)N1CC(=C)CN(CC(=C)C1)S(=O)(=O)C2" , reported GI50: 78.7 µM (inactive)

###

tested on: OVCAR-4; test: NCI tumour cell line growth inhibition, 48 h
Active and inactive are the calls of the source. Rule as the data show it: active = GI50 up to about 1.1 µM and inactive = higher.
Tick one outcome: class 1 (active), class 0 (inactive)

Compound: CCOC(=O)c1cc(-n2nnc3ccccc32)cn1C
Classification: class 0
//
Compound: COc1ccc(/C=C(/c2ccccc2)c2c(C)cc(C)c(/C(=C\c3ccc(OC)cc3)c3ccccc3)c2/N=N/c2cc(C)cc(C)c2)cc1
Classification: class 0
//
Compound: O=C(OCC1CC(C2(O)CCCCC2)C(=O)O1)c1ccccc1 (stereo not given)
Classification: class 0
//
Compound: CC(=O)O[C@H]1CCC2[C@@H]3CCC4Cc5nc6c(nc5C[C@]4(C)C3CC[C@@]21C)CC1CC[C@@H]2C(CC[C@@]3(C)C2CC[C@@H]3C(C)CCCC(C)C)[C@@]1(C)C6 (stereo not given in full)
Classification: class 0
//
Compound: COC(=O)c1c(C)c2c(c(C)c1O)OC(=O)c1c(C)cc(O)c(C=O)c1O2
Classification: class 0
//
Compound: O=c1[nH]nc(Cc2ccccc2)n1/N=C/c1ccccc1O
Classification: class 0
//
Compound: CCCCN1CN2C(=O)C(C(=O)OCC)C(=O)c3sc4nc(SC)nc1c4c32 (stereo not given)
Classification: class 0
//
Compound: O=C(C=P(c1ccccc1)(c1ccccc1)c1ccccc1)c1ccccc1-c1ccccc1C(=O)C=P(c1ccccc1)(c1ccccc1)c1ccccc1
Classification: class 1

query: Any idea what this test logged for "CCOC(=O)c1nc2cc(C(F)(F)F)ccc2nc1Oc1ccc(C#N)cc1" ?
result: class 0

query: Any idea what this test logged for "COC(=O)/C=C\C(C#N)(C#N)/N=C/c1cccc(OC)c1" ?
result: class 0

query: Any idea what this test logged for "C(=N\NC1=NCCN1)/c1cccc2cc3ccncc3nc12" ?
result: class 0

query: Any idea what this test logged for COC(CO[Si](C)(C)N[Si](C)(C)OCC(OC)c1ccccc1)c1ccccc1 (stereo not given) ?
result: class 0

query: Any idea what this test logged for C=CCNC(=O)NCCCCC(NC(C)=O)C(=O)NCc1ccccc1 (stereo not given) ?
result: class 0

query: Any idea what this test logged for "CCCN(CCC)C(=O)c1c([N+](=O)[O-])cc(C(F)(F)F)cc1[N+](=O)[O-]" ?
result: class 0

query: Any idea what this test logged for "Cc1cc2ccccc2oc(=O)/c1=N\Nc1ccccc1" ?
result: class 0

query: Any idea what this test logged for "O=C(O)/C=C/C(=O)Nc1cccc2c1-c1ccccc1C2=O" ?
result: class 0

query: Any idea what this test logged for "Cc1ccc2nc(-c3ccc(NC(=O)c4ccc(N)cc4)c(S(=O)(=O)O)c3)sc2c1" ?
result: class 0

query: Any idea what this test logged for "CC(=O)Oc1ccc2cc(Oc3ccccc3)c(=O)oc2c1" ?
result: class 0

query: Any idea what this test logged for "O=c1c(-c2ccccc2Cl)coc2cc(F)ccc12" ?
result: class 0

query: Any idea what this test logged for c1ccc2c(c1)N=C(c1cccc3ccccc13)CC(c1cccc3ccccc13)S2 (stereo not given) ?
result: class 0

Numbers sourced from ChEMBL document CHEMBL1201862.
